Tested on: redroot pigweed (Amaranthus retroflexus)
Assay: Test G Pre-Emergence Protocol
Format: in vivo
Conditions: Amaranthus retroflexus, pre-emergence, 312 h, 250 g ai/ha, evaluated after 13 days, read-out: Pigweed, Redroot damage rating (100=total damage to plant; 0=no damage to plant)
From the text: Seeds of corn (Zea mays), giant foxtail (Setaria faberi), barnyardgrass (Echinochloa crus-galli), ivy-leaved morning glory (Ipomoea hederacea), redroot pigweed (Amaranthus retroflexus) and velvetleaf (Abutilon theophrasti) were sown in standard soil in pots. […]
Could you please report measured pest or weed control at 250 g/ha for the items listed next?
Numbers only, in %.

Items follow; give pest or weed control at 250 g/ha for each.
1. CN1C[C@H](c2ccc(C(F)(F)F)cc2)[C@@H](C(=O)Nc2cccc3ccsc23)C1=O (racemic) [Compound 1757]
2. CN1C[C@H](c2ccc(C(F)F)cc2)[C@@H](C(=O)Nc2cccc(F)c2F)C1=O (racemic) [Compound 1728]
3. Cc1cc(C(F)(F)F)ccc1[C@@H]1CN(C)C(=O)[C@H]1C(=O)Nc1ccccc1F (racemic) [Compound 1415]
4. CSc1ncccc1NC(=O)[C@H]1C(=O)N(C)C[C@@H]1c1ccc(C(F)(F)F)cc1 (racemic) [Compound 1786]
5. CN1C[C@H](c2ccc3c(c2)CCO3)[C@@H](C(=O)Nc2cccc(F)c2F)C1=O (racemic) [Compound 1499]
6. CN1C[C@@H](c2ccc(C(F)(F)F)cc2)[C@H](C(=O)Nc2cccc(Cl)n2)C1=O (racemic) [Compound 1606]

1. 0
2. 80
3. 10
4. 40
5. 0
6. 0

###

Could you please report measured Plant response rating, Foxtail, Giant for the items listed next?
system: giant foxtail (Setaria faberii); assay: Test A postemergence; assay type: in vivo; conditions: Postemergence, 500 g ai/ha; 0 to 100 scale where 0 is no effect and 100 is complete control
Answers are plain numbers.

Field: example entries. Status: answers known.
> print(dat)
                                   compound                       testtarget                       propertymeasured  datavalue
1  O=C1NCC(c2cc(F)cc(C(F)(F)F)c2)C1C(=O)Nc1cccc(F)c1F (stereo not shown)  giant foxtail (Setaria faberii)  Plant response rating, Foxtail, Giant         90
2  CN1CC(c2cccc(OC(F)(F)C(F)F)c2)C(C(=O)Nc2ccccc2F)C1=O (stereo not shown)  giant foxtail (Setaria faberii)  Plant response rating, Foxtail, Giant         90
3  O=C(Nc1ccccc1F)C1C(=O)N(CC=CCl)CC1c1cccc(C(F)(F)F)c1 (stereo not shown)  giant foxtail (Setaria faberii)  Plant response rating, Foxtail, Giant         70
4  O=C1NCC(c2c(F)cccc2F)C1C(=O)Nc1ccc(F)cc1F (racemic)  giant foxtail (Setaria faberii)  Plant response rating, Foxtail, Giant          0

Items follow; give Plant response rating, Foxtail, Giant for each.
1. COc1c(F)ccc(NC(=O)C2C(=O)NCC2c2cc(F)cc(F)c2)c1F (racemic)
2. O=C1NCC(c2c(F)cccc2F)C1C(=O)Nc1cccc(F)c1F (racemic)
3. O=C1NCC(c2cc(F)ccc2F)C1C(=O)Nc1cccc(F)c1F (racemic)
4. CN1CC(c2ccc(Br)cc2)C(C(=O)Nc2ccc(F)cc2F)C1=O (stereo not shown)

90
70
90
90

Items follow; give Plant response rating, Foxtail, Giant for each.
1. COCc1cccc(C2CNC(=O)C2C(=O)Nc2ccc(F)cc2F)c1 (stereo not shown)
2. Cc1ccc(C2CNC(=O)C2C(=O)Nc2ccc(F)cc2F)c(F)c1 (racemic)
3. O=C1NCC(c2cc(C(F)(F)F)ccc2F)C1C(=O)Nc1ccccc1F (stereo not shown)
4. CN1CC(c2cccc(OC(F)F)c2)C(C(=O)Nc2cccc(F)c2F)C1=O (stereo not shown)

1. 30
2. 40
3. 90
4. 90

For O=C1NCC(c2cc(F)ccc2F)C1C(=O)Nc1ccc(F)cc1F (racemic) , what is its reported Plant response rating, Foxtail, Giant? 70
